Test system: Plasmodium falciparum
assay.name: Screen against P. falciparum Asexual Blood Stage (ABS), at 5uM
Format: functional, Dd2
condition.set: tested at 5 uM
Screen size: about 65,000 compounds; about 2,100 (3.2%) showed an effect of 50% or more. The median lay at about -52%. Only a selection was taken, and strong results are over-represented in it overall.
quantity: INHIBITION (%)
Reply with just the number (in %).

Q. Any idea what its INHIBITION is? The compound is COc1ccc(NC(=O)c2nc3ccccc3n(C)c2=O)cc1OC
A. -33.5

Q. Given the entry CC(C)OCc1ccc(CNc2cncc(-n3cccn3)n2)cc1 , report its measured INHIBITION.
A. -83.1

Q. I am curious: what INHIBITION value has been reported for CN(Cc1noc(C2CC2)n1)C1CCN(Cc2cccc(F)c2F)C1 (centres undefined) ?
A. 26.6

Q. What value of measured INHIBITION is listed for CCn1cc(NC(=O)CCc2ccc3c(c2)OCCCO3)cn1 ?
A. -127

Q. Consider the compound shown here: COc1cc(NC(=O)N2CCCC2c2nncn2C)ccc1Br (centres undefined) What is its recorded INHIBITION?
A. -53.7

Q. Which measured INHIBITION value corresponds to CN(C)C(=O)CN1CCCC(c2cncc(-c3cccc(Cl)c3)n2)C1 (centres undefined) ?
A. 49.6

Q. May I ask what INHIBITION has been recorded for CCc1c(C)nc2cc(C3CCN(Cc4cccnc4)C3)nn2c1O (centres undefined) ?
A. -81.6

Q. # INHIBITION lookup, item Cc1ccc(CC(=O)N2CCC(Nc3ccc(C)nn3)CC2)cn1
A. 18.7

Q. Give the measured INHIBITION of Cc1ccc(NC2CCN(C(=O)c3c(C)noc3C)CC2)nn1 .
A. -103

Q. Which INHIBITION value belongs to Cc1cnn(CC(=O)N2CCC(Nc3ccc(C)nn3)CC2)c1 ?
A. 56.7

Q. Fill in: INHIBITION of Cc1nc2cc(C3CCN(Cc4ccccc4F)C3)nn2c(O)c1C (centres undefined) is ___
A. 50.3

Q. Consider the compound Cc1ccc(NC2CCN(C(=O)c3ccc(Cl)o3)CC2)nn1 and give its measured INHIBITION.
A. -6.11

Q. // INHIBITION lookup, key: Cc1ccsc1CNCCCOc1ccccn1
A. 54.4

Q. For the compound CCOC(=O)[C@H]1[C@@H](O)C(=O)N(C)C12CCN(C(=O)CC1CCCC1)CC2 , what INHIBITION is on record?
A. -1.62

Q. Value lookup for INHIBITION; key = CCc1c(C)nc2cc(C3CCN(Cc4cccc(F)c4)C3)nn2c1O (centres undefined)
A. 5.05

Q. Requested field: INHIBITION. Item: NC(=O)CN1CCC(c2cncc(-c3cccc(Cl)c3)n2)CC1
A. 67.6

Q. Name the recorded INHIBITION for c1ccc(OCCNCc2cccs2)nc1 .
A. -79.1

Q. Quick one: INHIBITION for CN(C)c1ccc(NC(=O)NCC2CCOC2)cn1 (centres undefined) ?
A. 33.3

Q. Need INHIBITION, item O=C(C(CNCc1cccs1)c1ccccc1)N1CCOCC1 (centres undefined)
A. 7.93

Q. Record request: INHIBITION value, item c1ccc(OCCCNCc2cccs2)nc1
A. 19.1

Q. Query: INHIBITION; subject: Cc1ccc(NC2CCN(C(=O)c3ccc(C)o3)CC2)nn1
A. 53.6

Q. Item under review: Cc1nc2cc(C3CCN(Cc4cccc(F)c4F)C3)nn2c(O)c1C.O=C(O)CC(O)(CC(=O)O)C(=O)O (centres undefined) . Reported INHIBITION?
A. 59.6

Q. Requested read-out: INHIBITION. Entry: O=C(C(CNCc1cccc(O)c1)c1ccccc1)N1CCOCC1 (centres undefined)
A. -52.6

Q. Which INHIBITION value belongs to CCc1ccc(C(=O)N2CCC(Nc3ccc(C)nn3)CC2)o1 ?
A. -100

---

Tested on: Plasmodium falciparum
assay.name: Screen against P. falciparum Asexual Blood Stage (ABS), at 5uM
Type: functional, Dd2
condition.set: tested at 5 uM
Out of some 65,000 compounds screened, about 2,100 (3.2%) showed an effect of 50% or more. The median lay at about -52%. Shown is part of a subset that was picked to be rich in strong results.
Exercise: state measured INHIBITION for each of the compounds provided.
Write the value in % as a bare number.

Q. For CC1CCCCN1CCNC(=O)c1ccn(-c2ccccc2)n1 (centres undefined) , what is its reported INHIBITION?
A. 22

Q. What value of measured INHIBITION is listed for O=C(CN1C[C@@H]2CC[C@H]1CN(Cc1ccccn1)C2)NCc1cccs1 ?
A. 68.4

Q. Give its INHIBITION value. Item: CN1CCCCC1c1cncc(N2CCC(O)CC2)n1 (centres undefined)
A. -68.9

Q. Name the recorded INHIBITION for CCc1nc(C)sc1CNC1CCN(Cc2ccccc2)C1 (centres undefined) .
A. -2.57

Q. Record request: INHIBITION value, item Cc1nc(CNC2CCN(Cc3ccccc3)C2)sc1C (centres undefined)
A. 7.17

Q. # query: INHIBITION of entry Cc1cccc(CN2CCC3(CCN(Cc4ccccn4)C3)C2=O)c1 (centres undefined)
A. 27.8

Q. I'd like to know its INHIBITION. The compound in question is O=C(NC1CC1)[C@@]12CCO[C@@H]1CCN(Cc1ccc3c(c1)OCO3)C2
A. -28.1

Q. Would you mind telling me what INHIBITION value was observed for C[C@@H]1CN(CCC(=O)N(C)Cc2ccccc2)CC[C@@]1(O)C1CCC1 ?
A. 22.8

Q. Which INHIBITION value belongs to CN(C)C(=O)COCc1cncc2c1CCN(Cc1ccccn1)C2 ?
A. 25.8

Q. Recorded INHIBITION for CC(C)c1cc(CN(C)C(=O)C(C)N2CCc3ccccc3C2)no1 (centres undefined) , please?
A. -28.5

Q. Which INHIBITION is listed for N#Cc1cc(F)ccc1CN1CCCC1Cn1cccn1 (centres undefined) ?
A. -48.4

Q. Please report the recorded INHIBITION for N[C@@H]1CCCN(C(=O)Cc2c[nH]c3ccccc23)[C@H]1c1ccccc1F .
A. 65.8

Q. Look at this compound and give its reported INHIBITION. CC(C)NC(=O)N1CCC2(CC1)C(=O)NCCN2Cc1ccccc1
A. -105

Q. Consider the compound shown here: C[C@@H]1CN(CCOc2ccc(Cl)cc2)CC[C@@]1(O)C1CCOCC1 What is its recorded INHIBITION?
A. -28.8

Q. Param item = c1ccc(CN2CCc3c(COCC4CC4)cncc3C2)nc1 ; retrieve measured INHIBITION.
A. 59.3

Q. Which INHIBITION value belongs to COc1cccc(CCC(=O)N2CCCC(c3nncn3C)C2)c1 (centres undefined) ?
A. -9.28

Q. Please report the recorded INHIBITION for Cc1nc(CCNC2CCN(Cc3ccccc3)C2)sc1C (centres undefined) .
A. 53.5

Q. What value of INHIBITION has been recorded for this entry: Cc1c(C)n(Cc2ccncc2)c2nc3c(c(N)c12)CCCCC3
A. 21

Q. What INHIBITION value was documented for this compound, CC1CCCCN1CCNC(=O)c1ccn(-c2cccc(F)c2)n1 (centres undefined) ?
A. 64.3

Q. I'd like to know its INHIBITION. The compound in question is O=C(c1cc(Cl)c[nH]1)N1CCCC(c2cc(C(F)(F)F)[nH]n2)C1 (centres undefined)
A. 20.5

Q. // returns reported INHIBITION for input COc1c(C(=O)NCC(C)C)nnn1Cc1ccccc1
A. -128

Q. What does the record list as INHIBITION for Cc1c(C)n(Cc2ccccn2)c2nc3c(c(N)c12)CCCCC3 ?
A. 23.7

Q. So what does the record say about INHIBITION for COc1cccc(CCC(=O)N2CCC[C@@H](N)[C@@H]2c2ccccc2F)c1 ?
A. 68

Q. So what's the measured INHIBITION for this one? Cn1cnnc1C1CCCN(C(=O)NCCCn2cccn2)C1 (centres undefined)
A. -205

---

Can you tell me INHIBITION for the items I'm about to list?
Test system: Plasmodium falciparum
assay.name: Screen against P. falciparum Asexual Blood Stage (ABS), at 5uM
Assay type: functional, Dd2
condition.set: tested at 5 uM
The campaign covered roughly 65,000 compounds. About 2,100 (3.2%) showed an effect of 50% or more. The median lay at about -52%. The list comes from a sample in which strong results are over-represented; it also holds close analogues and randomly drawn compounds.
Provide only the numeric value, understood in %.

Q. Provide value of INHIBITION for this record tested with Plasmodium falciparum: CCN(Cc1ccco1)C(=O)C1=NN(c2ccccc2)C(=O)CN1
A. 60.6

Q. What is its INHIBITION for Plasmodium falciparum? Entry: Cc1ccc(N2N=C(C(=O)N(C)Cc3ccco3)NCC2=O)cc1
A. -13.2

Q. Lab request: please report INHIBITION under test system Plasmodium falciparum for NCCC1CN(c2nc(-c3ccccc3)nc3c2CCNC3)CCO1 (stereo not drawn)
A. 66.1

Q. Plasmodium falciparum / INHIBITION / OCCC1CN(c2nc(-c3ccncc3)nc3c2CCNCC3)CCO1 (stereo not drawn) : value?
A. -97.5

Q. // map Cc1csc(CCCNc2ccc(S(N)(=O)=O)cc2C#N)n1 to recorded INHIBITION (system: Plasmodium falciparum)
A. -9.07

Q. Find INHIBITION (Plasmodium falciparum) for the entry CN(Cc1ccc(-n2cccn2)cc1)c1nc(N)nc2c1CCNCC2
A. 58.4

Q. Notebook entry, Plasmodium falciparum assay: INHIBITION of Cc1nc2c(c(N(C)Cc3ccccc3-n3cccn3)n1)CCNCC2 = ?
A. -3.02

Q. # query: INHIBITION | item CN(CC1CCCCO1)c1nc(-c2cccnc2)nc2c1CCNC2 (stereo not drawn) | system: Plasmodium falciparum
A. -14.1

Q. Query INHIBITION on Plasmodium falciparum for NCC1CN(c2nc(-c3ccccc3)nc3c2CCNCC3)CCO1 (stereo not drawn)
A. 69.5

Q. What measured INHIBITION is associated with CCc1nc2n(n1)CC(NCc1nnc(C(C)C)o1)CC2 (stereo not drawn) on Plasmodium falciparum?
A. -107

Q. Tell me reported INHIBITION for Cc1cc(CN(C)c2nc(-c3ccccn3)nc3c2CCNCC3)n[nH]1 , tested with Plasmodium falciparum.
A. 69.2

Q. Requested read-out INHIBITION, target or system Plasmodium falciparum, entry CN(CC1CCCO1)c1nc(-c2cccnc2)nc2c1CCNCC2 (stereo not drawn)
A. -40

Q. Please tell me: INHIBITION of O=C(O)c1cc2c(nc1-c1ccoc1)CCN(CC1CCOC1)CC2 (stereo not drawn) , system Plasmodium falciparum?
A. -108

Q. Write down the reported INHIBITION of c1ccc(-c2nc3c(c(NCCn4cccc4)n2)CCNCC3)nc1 , test system: Plasmodium falciparum.
A. -0.552

Q. Give INHIBITION (Plasmodium falciparum) of the following compound: Cc1nonc1CN(C)c1nc(-c2cccnc2)nc2c1CCNC2
A. 69.5

Q. Under Plasmodium falciparum: INHIBITION value of NC(=O)[C@@H]1CCCN1C(=O)c1cn(C/C=C/c2ccccc2)nn1 ?
A. -88.2

Q. Tell me reported INHIBITION for CN(Cc1cccnc1)c1nc(-c2ccccn2)nc2c1CCNCC2 , tested with Plasmodium falciparum.
A. 55.3

Q. State its INHIBITION on Plasmodium falciparum: OCCC1CN(c2nc(-c3cccnc3)nc3c2CCNCC3)CCO1 (stereo not drawn)
A. -121

Q. Hi! What's the reported INHIBITION for CCc1cc(C(F)(F)F)n2nc(C3CCCN3C(=O)COC)cc2n1 (stereo not drawn) on Plasmodium falciparum?
A. -17.9

Q. Report INHIBITION for COc1ccc2nc(C[C@@H]3C[C@@H](C(C)C)[C@H](CN)C=C3C)[nH]c2n1 tested on Plasmodium falciparum.
A. 68.7

Q. Can you look up INHIBITION on Plasmodium falciparum for CN(CCO)c1nc(-c2ccccn2)nc2c1CCNC2 ?
A. -79.2

Q. Value wanted: INHIBITION (Plasmodium falciparum) of entry Cc1ccc(C(=O)N2C[C@H]3CCC[C@@]3(COCC3CCOCC3)C2)o1
A. -35.2

Q. Can you look up INHIBITION on Plasmodium falciparum for O=C(Nc1nccs1)NC1CCN(Cc2ccccc2)C1 (stereo not drawn) ?
A. -9.31
